Exercise: for every item that follows, state its recorded self-cleavage.
B1: CPEB3 Ribozyme (parent)
chain: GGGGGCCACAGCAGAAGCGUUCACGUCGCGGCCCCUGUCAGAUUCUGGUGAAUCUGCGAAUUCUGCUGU

Variants of: B1
Experiment: self-cleavage, relative activity (ratio to wild type); higher = more cleavage; co-transcriptional

C35U U43G	0.753
A13U A40C	0.163
G41U C57A	0.303

// batch mode: one self-cleavage value per listed entry
1. G1U C45A
2. U67G G68A
3. G3U G4U
4. C29A A60C
5. C33U G65A
6. A52C U67G
7. G11C C27G

1. 0.11
2. 1.08
3. 0.0247
4. 0.307
5. 0.919
6. 1
7. 0.104
